Assign composite z-score to each entry below.
- target_or_test_system: Torsin-1A (Homo sapiens)
- measurement_description: small-molecule binders of mutant TOR1A in lysate, primary screen, cell lysate, small-molecule microarray, COS7 lysate, 635/667 nm fluorescence (AID 1150);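 note: score pools 667 nm emission and signal to noise measuring lysate protein binding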
- stated_conditions: COS7 hTOR1A mutant lysate, 635 nm fluorescence, higher = more signal
Field format: numeric only.

Q) What value of composite z-score has been recorded for this entry: `O=C1N(Cc2ccccc2)Cc2ccccc2C[C@@]12COC(c1ccc(OCCCO)cc1)=N2`
A) 0.695

Q) Then `CN(C)CCCCNC(=O)[C@H]1C[C@H]2C(=O)N[C@@H](CCCCN(C)C)C(=O)N2[C@H]1c1ccc(O)cc1` ?
A) 0.282

Q) Then `CCCC=C(CCC)[C@@H](NC(=O)c1ccc(C(=O)OC)cc1)c1ccc(C(=O)OC)cc1` ?
A) -0.415

Q) Then `O=C1O[C@@H](c2ccccc2)[C@@H](c2ccccc2)N2[C@@H](c3ccccc3OCCO)[C@]3(C(=O)Nc4ccc(C#CC5(O)CCCCCC5)cc43)[C@@H](C(=O)N3CCCCCCC3)[C@H]12` ?
A) 3.08

Q) Then `[N-]=[N+]=Nc1ccccc1C[C@]1(C(N)=O)COC(c2ccc(OCCCO)cc2)=N1` ?
A) 1.21

Q) Then `COc1ccc(CCNC(=O)[C@@]2(c3ccc([N+](=O)[O-])cc3)CC(=O)N(C3CCCCC3)[C@@H]2c2ccc(CO)cc2I)cc1` ?
A) 0.0294

Q) Then `C=CCNC(=O)[C@@H]1[C@H]2C(=O)O[C@H](c3ccccc3)[C@H](c3ccccc3)N2[C@H](c2ccc(OCCO)cc2)[C@@]12C(=O)Nc1ccc(C#CCNC(N)=O)cc12` ?
A) 0.19

Q) Then `C=CCOC(=O)[C@H]1[C@@H]2C(=O)O[C@@H](c3ccccc3)[C@@H](c3ccccc3)N2[C@@H](c2ccc(OCCOC(=O)[C@H]3C[C@H]4C(=O)NCC(=O)N4[C@H]3c3ccc(O)cc3)cc2)[C@]12C(=O)Nc1ccccc12` ?
A) 1.14

Q) Then `COc1ccc(C(=O)Nc2cccc(CN3C(=O)[C@]4(O[C@H](CC(=O)N(CCO)Cc5ccccc5)[C@@H]([Si](C)(C)c5ccc(OC)cc5)[C@@H]4C)c4ccccc43)c2)cc1` ?
A) 0.395

Q) Then `COC(=O)[C@@]1(Cc2ccc(OC)cc2)[C@H]2c3cc(C(=O)N(C)C)n(Cc4c(CO)[nH]cc(C)c4=O)c3C[C@H]2CN1C(=O)c1ccccc1` ?
A) 0.461

Q) Then `COC(=O)[C@@]1(Cc2ccc(F)cc2)[C@H]2c3cc(C(=O)N(C)C)n(CCF)c3C[C@H]2CN1C(=O)c1ccccc1` ?
A) 0.606

Q) Then `COc1ccc([Si](C)(C)[C@@H]2[C@@H](CC(=O)N3CCC[C@H]3CO)O[C@]3(C(=O)N(Cc4cccc(N5C(=O)c6cccc7cccc5c67)c4)c4ccccc43)[C@H]2C)cc1` ?
A) 0.499

Q) Then `[N-]=[N+]=NCc1ccccc1[C@H]1OC(c2ccc(OCCCO)cc2)=N[C@@]1(CCS(=O)(=O)c1ccccc1)C(=O)O` ?
A) 0.622

Q) Then `CC(C)C[C@@H]1NC(=O)[C@H]2C[C@@H](C(=O)O)[C@@H](c3cccc(OCCO)c3)N2C1=O` ?
A) 2.17

Q) Then CC(C)C[C@H]1NC(=O)CNC(=O)[C@@]23C(=O)N[C@@H](Cc4ccccc4)C2[C@H](C)[C@@]2(C)O[C@H]2C3/C=C/C/C=C\CNC1=O (some centres undefined) ?
A) 0.129

Q) Then `[N-]=[N+]=NCc1ccccc1[C@H]1OC(c2ccc(OCCCO)cc2)=N[C@@]1(CCS(=O)(=O)c1ccccc1)C(=O)NCCN1CCOCC1` ?
A) 0.183

Q) Then O=C1C2C=CC(C(O)C(c3ccccc3)c3ccccc3)N(Nc3ccccc3F)C2C(=O)N1c1ccccc1 (centres undefined) ?
A) 0.895

Q) Then `COCCCNC(=O)[C@@]1(Cc2ccccc2I)c2ccccc2C(=O)N(C2CCCCC2)[C@H]1c1ccc(CO)cc1` ?
A) 0.646

Q) Then `O=C1c2ccccc2[C@@]2(Cc3ccccc3N(CC(F)(F)F)C2=O)[C@H](c2ccc(CO)cc2)N1Cc1ccccc1` ?
A) -0.175
